- System: Plasmodium falciparum
- ASSAY_PROCEDURE: GSK_TCMDC: Inhibition of Plasmodium falciparum 3D7 in whole red blood cells, using parasite LDH activity as an index of growth. Test compounds present at 2uM
- Assay type: functional
OBSERVATION_TYPE: Inhibition (%)

1) CCCCN(CCCC)/C(=N/C(=N)Nc1ccc(Cl)cc1)NCCCCCCN/C(=N\C(=N)Nc1ccc(Cl)cc1)N(CCCC)CCCC: 81
2) Br.CCCCCCCn1c2c(c(=N)c3c1CCC3)CCCC2: 98
3) CN(C(=O)Nc1ccc(C(F)(F)F)cc1)C1CCN(CCCCCNC(=O)/C=C/c2ccc(Cl)c(Cl)c2)CC1: 100
4) COc1cc(CS(C)(=O)=O)ccc1Nc1nccc(-c2c(-c3cccc(NC(=O)c4c(F)cccc4F)c3)nn3ccccc23)n1: 92
5) CC(C)CCNCc1ccc(OCc2cccc(COc3ccc(CNCCC(C)C)cc3I)c2)c(I)c1.Cl: 91
6) Br.CC1(C)NC(N)=NC(=N)N1OCCOc1ccc(Cc2ccccc2)cc1: 94
7) FC(F)(F)c1cccc(CNCCCCCNCc2ccc(Cl)cc2)c1: 91
8) Cc1cc(CN2CC[C@H](NC(=O)c3ccc(Cl)c(Cl)c3)C2)ccc1OC1CCN(Cc2ccccc2)CC1.O=C(O)C(F)(F)F: 98
9) CCOc1ccc(-n2nc3c(Cl)nnc(-c4ccccc4)c3c2-c2ccccc2)cc1: 96

* * *

- System: Plasmodium falciparum
- ASSAY_PROCEDURE: GSK_TCMDC: Inhibition of Plasmodium falciparum Dd2 in whole red blood cells, using parasite LDH activity as an index of growth. Test compounds present at 2uM
- Format: functional
Record yes (1) whenever Inhibition is at 90% or higher; record no (0) when lower.

1. COc1ccc(CNC2Cc3ccccc3C2)cc1-c1cccc(S(=O)(=O)NCCN2CCCC2)c1.O=C(O)C(F)(F)F: no (0)
2. Clc1cc(Cl)c2cc(CN[C@H]3CCC[C@@H]3CNc3nc4ccccc4[nH]3)[nH]c2c1: no (0)
3. N#CC(c1ccc(Br)cc1)c1ccc2c(C(F)(F)F)cc(C(F)(F)F)nc2n1 (centres undefined): yes (1)
4. FC(F)(F)c1ccc(CSc2ccc3nnc(-c4ccccn4)n3n2)cc1: no (0)
5. CCc1c(CCNCCCCCCNCCc2ccccc2)ccc(OC)c1OC.Cl: no (0)
6. COc1cccc(CC(=O)N2CCC(n3c(C)nc4ccc(C)cc43)CC2)c1: yes (1)
7. CC(C)CNCc1cccc(-c2ccc(CN(C(=O)NCCc3ccccc3)C3CCN(Cc4ccccc4)CC3)cc2)c1.O=C(O)C(F)(F)F: no (0)
8. Cc1ccc2[nH]c(C)cc(=NN=Cc3cccc(Cl)c3)c2c1: yes (1)
9. Cc1cc(=NN=Cc2ccccn2)c2cc(F)ccc2[nH]1: yes (1)
10. O=C(Nc1ccc(C(F)(F)F)cc1)c1cccc(S(=O)(=O)NC2CCN(CC3CCCCC3)CC2)c1.O=C(O)C(F)(F)F: no (0)
11. CCCc1cc(OC)c(C[C@@H]2c3cc(O)c(Cl)cc3CCN2C)cc1OC.Cl: yes (1)
12. Cc1cc(Nc2ccc(Cl)cc2)n2nc(C(F)(F)F)nc2n1: yes (1)
13. CN1CCN(c2ccc(-c3cc(-c4ccncc4)c(-c4ccc(Cl)c(O)c4)o3)cc2)CC1.Cl: yes (1)
14. Cc1cc(C2CCN(CCCCNC(=O)c3ccc(NC(=O)c4ccc(Cl)cc4)cc3)CC2)c(C)cc1OCc1nccn1C.Cl: yes (1)
15. O=C(NC1CCN(c2ccnc3ccccc23)C1)c1cccc(C(F)(F)F)c1.O=C(O)C(F)(F)F (centres undefined): no (0)
16. Cl.N#Cc1ccc2c(c1)CCN(CCC1CCC(NC(=O)/C=C/c3c[nH]c4c(Br)cccc34)CC1)CC2 (centres undefined): no (0)
17. COc1ccc(-c2ccc(NC(=O)c3cccc(C#N)c3)cc2)cc1CN1CCC(O)CC1.O=C(O)C(F)(F)F: no (0)
18. Fc1cccc(COc2ccc(Nc3ncnc4ccc(C#C[C@H]5CCCN5)cc34)cc2Cl)c1: no (0)

* * *

// reported Inhibition per item
- Tested on: HepG2
- ASSAY_PROCEDURE: GSK_TCMDC: Percent inhibition of human HepG2 cell line. Test compounds present at 10uM.
- Assay type: functional
OBSERVATION_TYPE: Inhibition

1) Cl.O=C(Nc1cc(Cl)cc(Cl)c1)Nc1ccnc2ccccc12: 15%
2) N#Cc1ccc2[nH]c(-c3cc(-c4cccc(F)c4)cnc3N)nc2c1.O=C(O)C(F)(F)F: 46%
3) O=C(Nc1cccc(CN2CCCN(Cc3ccc(O)cc3)CC2)c1)c1cccc(F)c1.O=C(O)C(F)(F)F: 22%
4) CCCc1cc(N2CCC(N(CC)CC)C2)nc(Nc2ccc(OC)cc2)n1 (configuration not stated): 9%
5) Cl.Clc1ccc(OCCC2CCN(CCCCCCCN3CCC(CCOc4ccc(Cl)c(Cl)c4)CC3)CC2)cc1Cl: 100%
6) Cl.Oc1cccc(Nc2ccnc3cc(-c4ccccn4)ccc23)c1: 24%
7) CCCCCCN1CCN(Cc2cccc(NC(=O)c3ccc(Cl)c(Cl)c3)c2)CC1.O=C(O)C(F)(F)F: 31%
8) CN(C)CCC1CCN(CCS(=O)(=O)c2cccc(Nc3ccc(-c4ccsc4)cn3)c2)CC1: 49%
9) COc1cc(OC)cc(-c2nn(-c3ccc([N+](=O)[O-])cc3Cl)c(=S)n2CC2CCCO2)c1 (configuration not stated): 5%
10) CN(Cc1c(Cl)cnn1C)S(=O)(=O)c1ccc2ccccc2c1: 7%
11) NC1CCCN(Cc2cccc(-c3ccc(-c4nc5ccccc5[nH]4)cc3)c2)C1.O=C(O)C(F)(F)F (configuration not stated): 25%
12) COc1ccc(C=C2SC(=N)N(c3ccccc3OC)C2=O)cc1: 47%
13) Cc1cc(F)ccc1-c1nc(NCCCN2CCCC2=O)nc2c1ccc(=O)n2-c1c(F)cccc1F: 0%
14) CCN(CC)S(=O)(=O)c1ccc(Cl)c(C(=O)Nc2ccc3nc(C)sc3c2)c1: 9%
15) CCCCCCCCCn1c(NCc2cc(Cl)ccc2O)nc2ccccc21: 13%
16) O=C(CCc1ccccc1)NC(c1ccc(Cl)cc1)c1ccc2cccnc2c1O (configuration not stated): 59%
17) COc1cc(CNC[C@@H](O)[C@H](Cc2ccccc2)NC(=O)c2cc(C3CCCC3)cc(N3CCCC3=O)c2)cc(OC)c1.Cl: 16%
18) FC(F)(F)c1ccc2[nH]c(-c3ccc(-c4ccc(CNCC5CCCO5)cc4)s3)nc2c1.O=C(O)C(F)(F)F (configuration not stated): 47%
19) O=C(Nc1ccc(-c2ccccc2)cc1)Nc1cccc(Cn2ncc(N3CCCNCC3)c(Cl)c2=O)c1: 14%
20) CCC(C)Oc1ccc2nc(N)nc(N)c2c1Cl (configuration not stated): 57%
21) CC(=O)Nc1ccc(Cl)c(Cl)c1: 5%
22) O=C(Nc1cccc(-c2nn3ncccc3c2-c2ccnc(Nc3cccc(-c4cnco4)c3)n2)c1)c1c(F)cccc1F: 96%
23) Nc1ncc(-c2cn[nH]c2)cc1-c1nc2ccc(Cl)cc2[nH]1: 46%
24) N=C(N)Nc1nc(-c2cccc(NC(=O)NCCc3c[nH]c4ccc(OCc5ccccc5)cc34)c2)cs1: 0%
25) COc1ccc(CN(C)CCCc2ccc(NC(=O)c3cc4ccccc4[nH]3)cc2)cc1OC.O=C(O)/C=C/C(=O)O: 39%
26) CCN(CC)/C(=N/C(=N)Nc1ccc(Cl)c(Cl)c1)NCCCCCCN/C(=N\C(=N)Nc1ccc(Cl)c(Cl)c1)N(CC)CC: 1%
27) O=C(NC1CC1)c1ccc(N2CCN(Cc3ccc(Cl)cc3)CC2)nc1.O=C(O)C(F)(F)F: 16%
28) CN1CCC(N2CCN(Cc3cccc(-c4cccc(-c5nc6ccccc6[nH]5)c4)c3)CC2)CC1.O=C(O)C(F)(F)F: 19%
29) CC(CCCCC(=O)Nc1ccc(CC(C)NCCc2cccc(Cl)c2)cc1)NCCc1cccc(Cl)c1 (configuration not stated): 28%
30) O=C(CCc1cccnc1)Nc1cccc(-c2ccc(-c3nc4cc(C(F)(F)F)ccc4[nH]3)s2)c1: 35%
31) COc1ccc2cc(C(C)NC3CCN(c4cccc(NC(=O)c5ccncc5)c4)CC3)ccc2c1 (configuration not stated): 13%
32) C[C@@H](Nc1nc(NCc2ccccc2)c2sccc2n1)c1ccccc1: 31%
33) Cc1cc(N[C@@H](C)C(=O)Nc2ccccc2)nc(NCCc2ccc(F)cc2)n1.O=C(O)C(F)(F)F: 33%
34) O=C(/C=C/c1ccc(Cl)c(Cl)c1)NCCCCCCN1CCN(C(=O)Nc2ccc(F)c(Cl)c2)CC1: 40%
35) CC[C@H](C)CNC(=O)c1cncc(-c2ccc(CN3CCC(N4CCCC4)CC3)cc2)c1.O=C(O)C(F)(F)F: 0%
36) CC1(C)NC(N)=NC(=N)N1OCOc1cc(Cl)c(Cl)cc1Cl.Cl: 66%
37) CCn1cnc2c(N3CCCS3(=O)=O)cc(C(=O)N[C@@H](Cc3ccccc3)[C@H](O)CNC(C)(C)c3cccc(C(F)(F)F)c3)cc21: 9%
